target: HLA-A*11:01 protein (Homo sapiens, UniProt P04439, A114D/D185E/E176A/F33Y/L180Q/S129P/T187R); construct: biotin (biotinylated); assay: Bio-Layer Interferometry (BLI) affinity test, Octet R8; settings: Octet R8, SSA sensors, peptides 100-3.125 µM in PBST (PBS+0.02%Tween20+1% DMSO), balance, binding, dissociation 60 s each
Where no end group is shown, it is not given here.
measure-name: pKd
// pKd: -log10(molar conc.)

Below are worked cases with known answers.
chain_sequence=GLSPTKLNDL test_result=3.50
chain_sequence=KCYGLSPTK test_result=4.64

Let us examine a further case.
Please give the measured pKd for this sequence: FSTFKCYGL
5.23
